test method notes: label from the status in PepcDB records

{"columns": ["monomer sequence", "protein production"],
 "data": [
  ["MAETIISLLSPTLDIKSPYYFNPDYLHQFNMHTNTAIDKLSEAKDNYAIWKLRFFDLLQFTNKTGFIDGTLPKPDPSSPYYEPWKQCNAIVLHWLSNTVTDTLQNHVLQAETVHKAWEDLRRIFVPCIDFKIYELRQRLATLRQGGDSVAEYFGKLSKAWLELKAYDPVQECKCGGCDCESEKRATEAREKEQRYAFLMGLNKEFDYVKMKVMHKKIPPSVYQAYEMVVYSEAMMKWKMGGRI", "failed"],
  ["MVPIPNGVSAKETHKLMGRGIAAFALLLLLQVSGSIVTQSGLAAPWWNAMFLWLLLTGIGCFSVASIRGRGLRWTSSILSLLVLAGLLLWPAAVPTTVPVDIGTPWLWAMINVGAAWSAFAFGTLPGCVYTVVIGSVFAVVRTLPQSGSASPSTAIQDASFSTVLGIIICLTIGILRQASERVDTAAENAINRYREAAAETALSNERTRVDGLLHDSVMSALLTASRSGSSLERLSSAELARSALARLGEHEIKQTDATTVSVSELASRIRFTVQDDGDTPTVTVTGEGSTSLLLSGQVVRALFEASTEAVANAVRHSNATRCEVRVLGQDPKGIARVVVSVKDNGDGFRQELVSDRRLGIKVSIIGRMRTIGGTADISSHPGKGTEVILTWAGEA", "failed"],
  ["DDNNAAEVDRQVAQDSAEPKTGENAAAGDSSSTNKNAEKIVAVDISAETEKTYLTHVANDMVIPAYADAAKQSDLLHDLAQKHCQKAPVSGDELQALRDQWLVLAQAWASAEMVNFGPATASMSNLYINYYPDERGLVHGGVADLITANPALTAEQLANESAVVQGIPGLEEALYANDSLDAGQCAYVMSASSALGTRLKDIEKNWQQNAIKLLAIDKTAESDQGLNQWFNSLLSLVETMKSNAIEQPLGLSGKAKGHLPAATAGQSRAIINAKLATLNKAMTDPVLTAILGSNNENTVADTLSTALADTTALLAQMPEDLATADKATQQELYDHLTNITRLIKSQLIPTLGIRVGFNSTDGD", "not failed"],
  ["MTISNFVNYIRSPPVNGFVCCTRGSSIAVCNPTTRQIVKLPDVVTNENYMHVRLGYDPVEDQYKVLLVVMMFDGYRTDTDQEYFVFTLSSQQKEWRKIENTTGETYHMVYGGICIDGAIYYGVSQSIIVKFDVRSEKMEFIQAHEVSHIAPPYYSTLLYLSSDMIRMENHSNEEVRFWILEDAEKLRVSHMACDVWDDSLGKYVRAKEEIHTGKLMGIYPRLQSSKYKPFSVCVYHFNKVGLKKTEIQGSNDDDIRFRCGIGMRTHEILILEVTLRILGSCEEFSWFH", "not failed"],
  ["PRRWPILLIFPGSGFIQMTEREAEPIALAFSAQGYQTMVVEYNLLDRGPVYPNAIDVGLTALKYAKNQGPPHYGDANKTILMGFSAGSHVAALTNAMGNNTEYLKTHGFGDSPLTSRLQVLGYPVIDLAAGFPKSREEAFKISPDEQYWASQNLVTDQTPPTFLWNTCADAVVPTMNSLLYAEALARHHVEYDIHTFTHGKHGLCLSTVETSRYNYPEDIEPRAANWVPLVLSWLSEMLD", "failed"]
]}

* * *

test method notes: label from the status in PepcDB records
quantity kind: protein production

{"columns": ["monomer sequence", "assay value"],
 "data": [
  ["MIVASSAAYRLHQGDALRLLCGIDSASVDAVITDPPYCSGAMRMADRFKPTKRKYINNGTKHVAPDFDCDFRDHRGFLAWSSQWLSECRRVTRPGGVLLVFTDWRMLPTLTDAVQSAGWAWQGIVVWDKTPACRPQLGRFRSQAEFIVWASCGLMNPKAHPVTPVGVFATGTAPREKRHQVGKPLALMEHLVKIVPPASTVLDPFAGSGTTGVAALRAGHRFIGMELSPWYCDVTKQRLADST", "failed"],
  ["MSNEFEPYNKEIKKIEFTTWKYQASKDAEHSPSDEEELINELEVVKQEAFQKGYADGFQQAQEEINAIKAELSKWLDLIQKPVQILDEQLTQEIIQTIIWLSQHCVAVELSVNPDKLNDLLNKIKGELPSLTGKKSISMHPDDVRWIKEVFSESNIPGLHELLVADPALNRGDFYLQGEHSELDGRIQTRFTTLFNEYINKENIIP", "failed"],
  ["MVAEITAPKSMGKVLGYNFSKVTAGNASVILTSSMSVDANGETNFERALTDMDMRIPSGIRTKKTVFHCSLNPHPDDRLTTEQLQDIAREYMEKMGYGKQPYIVFKHNDIAREHIHIVSLRVDSYGKKLPYKFEARRSKRITDELERKYGLIPSGNRRSRHETHAENVLKTADVKQGDVRRQIAAVVRAVLKRYAFRSLGEMNLLLARYHIVAEEVRKEYKGKRYDGLVYAITDDAGEKRMIPLHAGKIGRGTGYAAVVRHFEKSKALIKEKAPMLRNAIIEVMQSSPDKERFSEEMKKRGIDVHIRQNEQGRIYGITFISDEAGIAANGSRLGKGYSAHVFNDYFLGG", "not failed"],
  ["MLIKRLAFAIMTLVIMTSAGCGFKLQRSYQIPEQLNQLSLSSSDEYSELTRLVRERLRLNNVKIVDAANDVPVLRLITDSLERSTLSLYPTGNVAEYELIYFVEFAVALPGKEAQPFKIEIRRDYLDDPRTALAKSREMELLVKEMRIQAADRILQSMASTEVNLEHHHHHH", "not failed"],
  ["MVEQLVSNAAILLAGFYIISLVYKEPITKELSTNKKIVIGIWAGLLGFALMVFGIPISNNVIVDLRHIPIIMVGFYGGPIPAIVSAIIISASRFLLSVNSAAIMAAVVMMLIGIITAIFGKRIEKFKIWGVFILNIIACSFVVINLHLILARESHFWINMTVFVLIALVIGAVSAGLMSNMIKSKQLFQKYEQDSTLDYLTKLSNVRQFDEKINHVMDAGSRQVTLMLIDIDYFKNINDTYGHDAGDAILKQLAIILKRNTSDGSEAFRNGGEEFSIVLLDCPIEKGNFFAEQVRRETEEYDFMIPSGQVVKITISVGVSSSKDGANTSEGLFKSADEALYKAKLTGRNQVCIADGN", "failed"],
  ["MIFASDLDQTLIYSRKSFRAHIEDNSIQLIETLDGKEISFITYKTITLLIKLQLHSYFIPVTTRTIEQFQRITLFQNEIIPEYAITSNGGNILHNGKQDVTWNKEIKKRISVECIERNDILKEFEQIAHKDWVISQKTADDLFHYCIIKRENIPYDELSSFTSWLDKQGWNHSLQGRKLYFVPKPINKWDAVQYIQEILQMDTIITAGDSLLDLCMLEKANYAFAPLHGELGATYNHLQPHIVKTDAIGIYAAEEIVSKSLQIIHSSSPTS", "failed"]
]}

* * *

test method notes: label from the status in PepcDB records

{"columns": ["monomer sequence", "protein production"],
 "data": [
  ["MTEEQFSSYHPPLPPTTEEDRFSWLRLLRSRRVGPTTFRRLMHEHGTAQNALAALPEVARAAGVEGYEICPPGVVEAELKAAKAAKARLLCLGDADYPSHLAGISDAPPLLWLLGDPALLRRPMIALVGARNASSLGTRMARALAQDLGTAGFVVVSGLARGIDTAAHLAALPSGTIAVMAGGVDTVYPAENTHLAADIAQHGLRLSEQPMRLTPQARHFPRRNRIISGLAQAVVVVEAAAKSGSLITARDALDQGREVLAVPGHPFDARAAGCNMLIRDGAHLVRNAEDVITALPALTAPQPQPDLCDLMQQPAPPAKRSLRETVALHSLILDRLGPSPVAEDQLIRDLAASPGEVAPVLVDLELEGRINRQAGGLLSRVN", "failed"],
  ["MKRAYKIEINPTDDQKSKIHQTIGVSRFIYNFYIAHNKEIYEKEGKFVSGMDFSKWLNNEYIPNNQDKKWIKEVSSKATKQAIMNGDKAFKDFFKKAKGFPRFKKKKNQDVKAYFPKNNKTDWTLERHRVKIPTLGWVRLKEFGYIPKNSVVKSGTVSQKADRYYVSILVEETYIKISNPNNEGLGIDLGIKEFAICSNGNKFKNINKTSTVKKIEKKLKREQRKLSRKYESLKIRNKNIKEGRATRQNIQKQVVKVQRLHQRLANIRTDYINKTVFSIVKQKPSYITIEDLAVSNMMKNKHLSKAISSQKFFEFKTKLMSKCKQNNIELRIVDRFYPSSKTCSNCGKIKKDLKLSDRIYKCDCGFTIDRDLNASINLKNAKEYKIA", "failed"]
]}

* * *

test method notes: label from the status in PepcDB records
quantity kind: protein production

{"columns": ["monomer sequence", "quantity kind", "assay value"],
 "data": [
  ["MNIKINEKWREVKENCTVYALKNEEFPDSHVIVLNGFPLVEDKKLKDGDRIVFIKKGIMPNKEELEELMVSRHTPGIHEKLKRIKVLIAGCGGLGSNIAISLGRIGVGSISLVDFDIVEPSNLNRQQYYIEDIGEFKVTALKRNLIRINPFIKIEALNLKLSEDNMGILQGADIIIEAFDNPDYKALLANYVLGNMKDKFLISSSGMAGFYDSNLIKTKQITDKFYICGDLVNEAKEGCGLMAPRVAICANHMANLVIDIAINKIEFQK", "protein production", "failed"],
  ["MTESKKLWTGHIHLGEKVDFGVILNQLCQAFNGSPFFSHNAMQMRVIDNQIEGYIDMQPYLIGNVAFQILHGGVAATLLDSIGGIVAMAEIYRRAEATEMAEAIKKVSRLATVDMRVDYLAPGRGQYFIARAEVLRFGRKGCTMRMNLINDENKAIATAIASYAF", "protein production", "failed"]
]}

Cited source for all entries: a protein production outcome set (Wang et al. 2014)
